The values you see were collected from PubChem BioAssay (EPA / NIEHS).

MEASUREMENT_PROTOCOL: BSK_SAg_PBMCCytotoxicity: PBMC Cytotoxicity Assessment in the BioMAP Diversity Plus: SAg Assay (AID 2283093);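 further: PBMC viability measured as Alamar Blue reduction fluorescence at 546/580 nm; fitted both ways against DMSO so a hit may be loss or gain of signal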
MEASUREMENT_SETUP: primary human HUVEC with PBMC
The source made the active and inactive calls. How the source made its calls: active means hit-call score of the fitted dose curve at least 0.9, where 1 is the maximum; inactive means score below 0.9.
Could you please pick one outcome from this set? YES (active), NO (inactive)

Examples with answers:
COMPOUND	GROUP_LABEL
N#CN	NO
Oc1ccc(Cl)cc1Cc1ccccc1	YES
O=C1c2ccccc2C(=O)N1SC(Cl)(Cl)Cl	NO

GET /call?item= `O=C(Nc1ccccc1)Nc1cnns1` returns the recorded outcome of this test.
NO

GET /call?item= `Cc1[nH]c(=O)n(C(C)(C)C)c(=O)c1Cl` returns the recorded outcome of this test.
YES

GET /call?item= CC(C)(C)C(O)/C(=C\c1ccc(Cl)cc1Cl)n1cncn1 (stereo not drawn) returns the recorded outcome of this test.
NO

GET /call?item= `CCOCN(C(=O)CCl)c1c(C)cccc1CC` returns the recorded outcome of this test.
NO

GET /call?item= `CCN(CC)C(=O)SCc1ccc(Cl)cc1` returns the recorded outcome of this test.
NO

GET /call?item= `COC(=O)c1ccccc1S(=O)(=O)NC(=O)Nc1nc(C)nc(OC)n1` returns the recorded outcome of this test.
YES

GET /call?item= `CNC(=O)Oc1cccc(N=CN(C)C)c1` returns the recorded outcome of this test.
NO

GET /call?item= `COC(=O)c1ccccc1CS(=O)(=O)NC(=O)Nc1nc(OC)cc(OC)n1` returns the recorded outcome of this test.
NO

GET /call?item= `Oc1cc(Cl)ccc1Oc1ccc(Cl)cc1Cl` returns the recorded outcome of this test.
YES

GET /call?item= `C[C@H]1[C@H](c2ccc(Cl)cc2)SC(=O)N1C(=O)NC1CCCCC1` returns the recorded outcome of this test.
NO
